Recorded IC50 for the following compounds
# measured_on: Recombinant human HSD17B13 (Homo sapiens (Human))
# Sequence (Q7Z5P4 20-300): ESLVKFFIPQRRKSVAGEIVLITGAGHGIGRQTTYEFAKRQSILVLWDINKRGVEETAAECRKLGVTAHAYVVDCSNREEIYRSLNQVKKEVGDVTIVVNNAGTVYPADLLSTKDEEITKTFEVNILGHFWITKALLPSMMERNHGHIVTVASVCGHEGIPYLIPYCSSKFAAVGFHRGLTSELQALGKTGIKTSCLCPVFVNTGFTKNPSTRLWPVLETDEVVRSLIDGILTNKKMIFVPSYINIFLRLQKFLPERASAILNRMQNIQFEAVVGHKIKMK
# test_summary: HSD17B13 rapid-fire mass spectrometry assay (RF/MS assay)
# condition_details: inhibition of HSD17B13; LTB4 10 μM, NAD+ 0.5 mM, RT 3 h; IC50 ranges A-E

Study these solved cases before continuing.
Query: Requested read-out: IC50. Entry: COc1cc(C(=O)O)ccc1NS(=O)(=O)c1ccc(-c2ccc(F)cc2)s1
Response: < 100 nM

Query: Requested read-out: IC50. Entry: COc1cc(C(=O)O)c(F)cc1NS(=O)(=O)c1csc(-c2ccc([C@H]3CC[C@H](C(C)C)CC3)cc2)n1
Response: < 100 nM

Query: Requested read-out: IC50. Entry: COc1cc(C(=O)O)c(F)cc1NS(=O)(=O)c1cnc(-c2ccc(F)cc2)s1
Response: < 100 nM

Query: Requested read-out: IC50. Entry: COc1cc(C(=O)O)ccc1NS(=O)(=O)c1ccc(C2=CCN(c3ccccc3)CC2)cc1F
Response: 500 to 1000 nM

Query: Requested read-out: IC50. Entry: COc1cc(C(=O)O)ccc1NS(=O)(=O)c1csc(N2CCC(c3nnn[nH]3)CC2)n1
Response: 1000 to 100000 nM

Others:
Query: Requested read-out: IC50. Entry: CC[C@H]1CC[C@H](c2ccc(-c3nc(S(=O)(=O)Nc4cc(F)c(C(=O)O)cc4OC)cs3)c(C(F)(F)F)c2)CC1
Response: < 100 nM

Query: Requested read-out: IC50. Entry: COc1cc(C(=O)O)c(F)cc1NS(=O)(=O)c1csc(-c2ccc(C3CCC(C)(C)CC3)cc2C(C)C)n1
Response: 100 to 500 nM

Query: Requested read-out: IC50. Entry: COc1cc(C(=O)O)ccc1NS(=O)(=O)c1csc(-c2ccccc2C(F)(F)F)n1
Response: 500 to 1000 nM

----------
Recorded IC50 for the following compounds
# measured_on: Recombinant human HSD17B13 (Homo sapiens (Human))
# test_summary: HSD17B13 rapid-fire mass spectrometry assay (RF/MS assay)
# condition_details: inhibition of HSD17B13; LTB4 10 μM, NAD+ 0.5 mM, RT 3 h; IC50 ranges A-E

Study these solved cases before continuing.
Query: Requested read-out: IC50. Entry: COc1cc(C(=O)NO)ccc1NS(=O)(=O)c1cnc(-c2ccc(F)cc2)s1
Response: 1000 to 100000 nM

Query: Requested read-out: IC50. Entry: O=C(O)c1ccc(NS(=O)(=O)c2csc(-c3ccc(O)cc3)n2)c(O)c1
Response: 100 to 500 nM

Query: Requested read-out: IC50. Entry: COc1cc(C(=O)O)ccc1NS(=O)(=O)c1ccc(-c2ccc(O)cc2)s1
Response: 100 to 500 nM

For the next question, use this compound.
Query: Requested read-out: IC50. Entry: COc1cc(C(=O)O)c(F)cc1NS(=O)(=O)c1csc(-c2ccc(C3CCC(C)(C)CC3)c(F)c2C(F)F)n1
Response: < 100 nM

----------
# measured_on: Recombinant human HSD17B13 (Homo sapiens (Human))
# test_summary: HSD17B13 rapid-fire mass spectrometry assay (RF/MS assay)
# Format: biochemical
# condition_details: inhibition of HSD17B13; LTB4 10 μM, NAD+ 0.5 mM, RT 3 h; IC50 ranges A-E
measurement_kind: IC50

Query: Requested read-out: IC50. Entry: COc1cc(C(=O)O)c(F)cc1NS(=O)(=O)c1csc(-c2ccc(-c3ccc(C4CCC(C(C)(C)C)CC4)cc3C(F)(F)F)cc2C(F)(F)F)n1 (stereo not shown)
Response: 0.1 to 0.5 µM

Query: Requested read-out: IC50. Entry: COc1cc(C(=O)O)c(F)cc1NS(=O)(=O)c1csc(-c2ccc([C@H]3CC[C@H](C(F)(F)F)CC3)c(OC)c2F)n1
Response: < 0.1 µM

Query: Requested read-out: IC50. Entry: COc1cc(C(=O)O)ccc1NS(=O)(=O)c1ccc(-c2cccc(-c3ccccc3)c2)s1
Response: 0.1 to 0.5 µM

Query: Requested read-out: IC50. Entry: CCCCOc1c(C2CCC(C)(C)CC2)ccc(-c2nc(S(=O)(=O)Nc3cc(F)c(C(=O)O)cc3OC)cs2)c1F
Response: 0.1 to 0.5 µM
